Data provenance: patent US20250250357A1

target: T1, human MSLN-R2-his protein (human, UniProt Q13421 391-486); test: ELISA, coated antigen; antibody 0.1 nM
T1 construct: also called human MSLN-R2 protein; hMSLN-R2-his; not shown: His tag
T1 sequence (Q13421 other isoform, or with tags, fused parts or gaps): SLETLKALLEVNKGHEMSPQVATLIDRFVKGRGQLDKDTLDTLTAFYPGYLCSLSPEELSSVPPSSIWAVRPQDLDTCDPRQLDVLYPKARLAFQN
PROPERTY: OD450 (OD450)
Could you give me the number in OD450? Just the number is fine.

State the recorded OD450 for this entry: S009-F4-127.10 (antibody, human IgG1, kappa, V domains shown, Human-murine chimeric antibody, human IgG1/kappa constant regions) VH: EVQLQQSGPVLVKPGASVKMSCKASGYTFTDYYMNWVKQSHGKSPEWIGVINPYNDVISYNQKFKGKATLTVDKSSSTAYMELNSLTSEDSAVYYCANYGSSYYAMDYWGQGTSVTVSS VL: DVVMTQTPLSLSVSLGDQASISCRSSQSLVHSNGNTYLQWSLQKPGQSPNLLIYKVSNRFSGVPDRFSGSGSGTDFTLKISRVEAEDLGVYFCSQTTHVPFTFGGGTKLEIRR
0.05
